target: human 5-HT1A receptor (Homo sapiens, UniProt P08908); construct: expressed in transfected cells; host or cells: CHO cells, stably transfected; assay: Stimulation of [35S]-GTPγS binding (5-HT1A agonist activity) in CHO cells stably transfected with human 5-HT1A receptor; format: biochemical
Sequence (P08908 whole entry): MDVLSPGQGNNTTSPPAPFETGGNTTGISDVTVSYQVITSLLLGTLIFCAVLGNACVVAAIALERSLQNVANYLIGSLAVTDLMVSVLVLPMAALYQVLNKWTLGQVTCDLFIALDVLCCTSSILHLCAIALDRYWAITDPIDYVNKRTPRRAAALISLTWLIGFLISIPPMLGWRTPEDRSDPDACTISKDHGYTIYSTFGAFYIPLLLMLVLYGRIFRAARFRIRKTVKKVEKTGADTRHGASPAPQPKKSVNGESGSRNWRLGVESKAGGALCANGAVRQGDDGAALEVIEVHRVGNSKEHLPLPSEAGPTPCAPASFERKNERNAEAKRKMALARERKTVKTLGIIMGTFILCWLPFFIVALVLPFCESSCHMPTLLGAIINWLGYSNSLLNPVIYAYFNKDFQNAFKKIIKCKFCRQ
Where a name gives a salt, the structure may show the parent alone.
Here the recorded EC50 is given for each entry.
// units = nM; emit number, no label

Please review the entries below; each comes with its answer.
O=C(N[C@@H](Cc1ccccc1)CN1CCN(Cc2ccccc2)CC1)C12CC3CC(CC(C3)C1)C2 [Example 2, Dihydrochloride Dihydrate] :: 21
O=C(N[C@@H](Cc1ccccc1)CN1CCN(c2ncccn2)CC1)C12CC3CC(CC(C3)C1)C2 :: 2.4
Cl.Cl.O.O.O=C(N[C@@H](COCc1ccccc1)CN1CCN(Cc2ccccc2)CC1)C12CC3CC(CC(C3)C1)C2 [Example 5, Dihydrochloride Dihydrate] :: 77

Now consider a different compound.
*Q* Entry O=C(N[C@H](Cc1ccccc1)CN1CCN(c2ncccn2)CC1)C12CC3CC(CC(C3)C1)C2 [Example 3, Hemihydrate] : reported EC50 = ?
*A* 2
